- System: HeLa
- ASSAY PROCEDURE: Cell cycle arrest in human HeLa cells assessed as accumulation at S phase at 8 uM after 48 hrs by propidium iodide staining-based flow cytometric analysis (reference value: 10%)
- Assay type: functional
OBSERVATION TYPE: Activity

1. COc1ccc2cc(-c3cn(Cc4ccccc4-n4c(C)nc5ccccc5c4=O)nn3)ccc2c1: 5%
2. Cc1nc2ccccc2c(=O)n1-c1ccccc1Cn1cc(-c2ccccc2)nn1: 6%
3. COc1cc2nc(C)n(-c3ccccc3Cn3cc(-c4ccc(C)cc4)nn3)c(=O)c2cc1OC: 7%
4. Cc1nc2ccccc2c(=O)n1-c1ccccc1Cn1cc(S)nn1: 6%
5. COc1cc2nc(C)n(-c3ccccc3Cn3cc(S)nn3)c(=O)c2cc1OC: 5%
6. COc1cc2nc(C)n(-c3ccccc3Cn3cc(-c4ccccn4)nn3)c(=O)c2cc1OC: 7%
7. O=c1c2ccccc2nc2n1Cc1cc3ccccc3nc1-2 [LUOTONIN A]: 5%
